# Tested on: 653999-131-R-J2-PDC complex spheroid viability
# protocol notes: Anticancer human tumor 653999-131-R-J2-PDC patient-derived lung adenocarcinoma cell line growth inhibition
# details: second compound 3.16 µM; first compound 0.316 µM; hits give low values
This listing pairs molecules with measured viability, T/C.
measured attribute: viability, T/C (%)

>  <molecule>
CC1(C)CCC(CN2CCN(c3ccc(C(=O)NS(=O)(=O)c4ccc(NCC5CCOCC5)c([N+](=O)[O-])c4)c(Oc4cnc5[nH]ccc5c4)c3)CC2)=C(c2ccc(Cl)cc2)C1 + NC1CCC(NC2CC2c2ccccc2)CC1

>  <meas value>
102

$$$$
>  <molecule>
CC1COCCN1c1cc(-c2ccnn2C)c2ccnc(-c3ccn[nH]3)c2n1 (centres undefined) + NC1CCC(NC2CC2c2ccccc2)CC1

>  <meas value>
31.1

$$$$
>  <molecule>
CC1COCCN1c1cc(-c2ccnn2C)c2ccnc(-c3ccn[nH]3)c2n1 (centres undefined) + NC1CC1c1ccc(-c2cccc(O)c2)cc1

>  <meas value>
36.1

$$$$
>  <molecule>
CC1(C)CCC(CN2CCN(c3ccc(C(=O)NS(=O)(=O)c4ccc(NCC5CCOCC5)c([N+](=O)[O-])c4)c(Oc4cnc5[nH]ccc5c4)c3)CC2)=C(c2ccc(Cl)cc2)C1 + NC1CC1c1ccc(-c2cccc(O)c2)cc1

>  <meas value>
105

$$$$
>  <molecule>
COc1ccc([C@@H](O)c2cc(-c3ncnc4cc(N5CCOCC5)ccc34)c(F)cc2Cl)nn1 + NC1CCC(NC2CC2c2ccccc2)CC1

>  <meas value>
78.1

$$$$
>  <molecule>
O=C(C=Cn1cnc(-c2cc(C(F)(F)F)cc(C(F)(F)F)c2)n1)NNc1cnccn1 + NC1CCC(NC2CC2c2ccccc2)CC1

>  <meas value>
29.1

$$$$
>  <molecule>
Nc1ncn(C2CC(O)C(CO)O2)c(=O)n1 (centres undefined) + NC1CC1c1ccc(-c2cccc(O)c2)cc1

>  <meas value>
93.8

$$$$
>  <molecule>
CC(C)c1c(-c2ccccc2)nc2c(C#N)c[nH]n2c1=O + NC1CC1c1ccc(-c2cccc(O)c2)cc1

>  <meas value>
80.2

$$$$
>  <molecule>
COc1cc(Nc2ncc3c(n2)-c2ccc(Cl)cc2C(c2c(F)cccc2OC)=NC3)ccc1C(=O)O + NC1CCC(NC2CC2c2ccccc2)CC1

>  <meas value>
79.7

$$$$
>  <molecule>
COc1ccc([C@@H](O)c2cc(-c3ncnc4cc(N5CCOCC5)ccc34)c(F)cc2Cl)nn1 + NC1CC1c1ccc(-c2cccc(O)c2)cc1

>  <meas value>
63.2

$$$$
>  <molecule>
O=C(c1cc(Cc2n[nH]c(=O)c3ccccc23)ccc1F)N1CCN(C(=O)C2CC2)CC1 + NC1CCC(NC2CC2c2ccccc2)CC1

>  <meas value>
84.8

$$$$
>  <molecule>
CC1COCCN1c1cc(C2(S(C)(=N)=O)CC2)nc(-c2ccnc3[nH]ccc23)n1 (centres undefined) + NC1CC1c1ccc(-c2cccc(O)c2)cc1

>  <meas value>
94.5

$$$$
>  <molecule>
Nc1ncn(C2CC(O)C(CO)O2)c(=O)n1 (centres undefined) + NC1CCC(NC2CC2c2ccccc2)CC1

>  <meas value>
77.4

$$$$
>  <molecule>
CC1COCCN1c1cc(C2(S(C)(=N)=O)CC2)nc(-c2ccnc3[nH]ccc23)n1 (centres undefined) + NC1CCC(NC2CC2c2ccccc2)CC1

>  <meas value>
68.9

$$$$

----------
# Test system: 653999-131-R-J2-PDC complex spheroid viability
# protocol notes: Anticancer human tumor 653999-131-R-J2-PDC cell line growth inhibition;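 further: spheroids exposed to agents for seven days before readout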
# details: second compound 3.16 µM; first compound 0.00316 µM; hits give low values
Recorded viability, T/C determines the label; the label ranges are class A (below 60%), class B (60% to below 90%), class C (90% or more)

>  <molecule>
O=C(C=Cn1cnc(-c2cc(C(F)(F)F)cc(C(F)(F)F)c2)n1)NNc1cnccn1 + NC1CCC(NC2CC2c2ccccc2)CC1

>  <assigned category>
class B

$$$$
>  <molecule>
CC1COCCN1c1cc(-c2ccnn2C)c2ccnc(-c3ccn[nH]3)c2n1 (stereo unspecified) + NC1CC1c1ccc(-c2cccc(O)c2)cc1

>  <assigned category>
class A

$$$$
>  <molecule>
Nc1ncn(C2CC(O)C(CO)O2)c(=O)n1 (stereo unspecified) + NC1CC1c1ccc(-c2cccc(O)c2)cc1

>  <assigned category>
class C

$$$$
>  <molecule>
CC(C)CC(NC(=O)CNC(=O)c1cc(Cl)ccc1Cl)B1OC(=O)CC(CC(=O)O)(C(=O)O)O1 (stereo unspecified) + NC1CC1c1ccc(-c2cccc(O)c2)cc1

>  <assigned category>
class C

$$$$
>  <molecule>
COc1cc(Nc2ncc3c(n2)-c2ccc(Cl)cc2C(c2c(F)cccc2OC)=NC3)ccc1C(=O)O + NC1CC1c1ccc(-c2cccc(O)c2)cc1

>  <assigned category>
class B

$$$$
>  <molecule>
CC[C@@]1(O)C(=O)OCc2c1cc1n(c2=O)Cc2cc3c(CN(C)C)c(O)ccc3nc2-1 + NC1CCC(NC2CC2c2ccccc2)CC1

>  <assigned category>
class A

$$$$
>  <molecule>
O=C(C=Cn1cnc(-c2cc(C(F)(F)F)cc(C(F)(F)F)c2)n1)NNc1cnccn1 + NC1CC1c1ccc(-c2cccc(O)c2)cc1

>  <assigned category>
class A

$$$$
>  <molecule>
CC(C)CC(NC(=O)C(Cc1ccccc1)NC(=O)c1cnccn1)B(O)O (stereo unspecified) + NC1CCC(NC2CC2c2ccccc2)CC1

>  <assigned category>
class A

$$$$
>  <molecule>
CC[C@@]1(O)C(=O)OCc2c1cc1n(c2=O)Cc2cc3c(CN(C)C)c(O)ccc3nc2-1 + NC1CC1c1ccc(-c2cccc(O)c2)cc1

>  <assigned category>
class B

$$$$
>  <molecule>
Nc1ncn(C2CC(O)C(CO)O2)c(=O)n1 (stereo unspecified) + NC1CCC(NC2CC2c2ccccc2)CC1

>  <assigned category>
class B

$$$$
>  <molecule>
CC(C)CC(NC(=O)C(Cc1ccccc1)NC(=O)c1cnccn1)B(O)O (stereo unspecified) + NC1CC1c1ccc(-c2cccc(O)c2)cc1

>  <assigned category>
class A

$$$$
>  <molecule>
CC(C)CC(NC(=O)CNC(=O)c1cc(Cl)ccc1Cl)B1OC(=O)CC(CC(=O)O)(C(=O)O)O1 (stereo unspecified) + NC1CCC(NC2CC2c2ccccc2)CC1

>  <assigned category>
class C

$$$$

----------
# System: 653999-131-R-J2-PDC complex spheroid viability
# protocol notes: Anticancer human tumor 653999-131-R-J2-PDC cell line growth inhibition;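 further: spheroids exposed to agents for seven days before readout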
# details: second compound 0.316 µM; first compound 3 µM; hits give low values
# reported viability, T/C; entries follow

>  <molecule>
O=C(C=Cc1cccc(S(=O)(=O)Nc2ccccc2)c1)NO + NC1CCC(NC2CC2c2ccccc2)CC1

>  <unit info>
%

>  <viability, T/C>
3.12

$$$$
>  <molecule>
Nc1ccccc1NC(=O)c1ccc(CNC(=O)OCc2cccnc2)cc1 + NC1CC1c1ccc(-c2cccc(O)c2)cc1

>  <unit info>
%

>  <viability, T/C>
1.41

$$$$
>  <molecule>
COc1cc(C2c3cc4c(cc3C(OC3OC5COC(C)OC5C(O)C3O)C3COC(=O)C23)OCO4)cc(OC)c1O (stereo not drawn) + NC1CC1c1ccc(-c2cccc(O)c2)cc1

>  <unit info>
%

>  <viability, T/C>
25.2

$$$$

----------
# Test system: 653999-131-R-J2-PDC complex spheroid viability
# protocol notes: Anticancer human tumor 653999-131-R-J2-PDC cell line growth inhibition;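 further: spheroids exposed to agents for seven days before readout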
# details: second compound 3.16 µM; first compound 10 µM; hits give low values

>  <compound>
COc1ccc([C@@H](O)c2cc(-c3ncnc4cc(N5CCOCC5)ccc34)c(F)cc2Cl)nn1 + NC1CCC(NC2CC2c2ccccc2)CC1

>  <viability, T/C>
31.5%

$$$$
>  <compound>
COc1ccc([C@@H](O)c2cc(-c3ncnc4cc(N5CCOCC5)ccc34)c(F)cc2Cl)nn1 + NC1CC1c1ccc(-c2cccc(O)c2)cc1

>  <viability, T/C>
22.6%

$$$$
>  <compound>
CC1(C)CCC(CN2CCN(c3ccc(C(=O)NS(=O)(=O)c4ccc(NCC5CCOCC5)c([N+](=O)[O-])c4)c(Oc4cnc5[nH]ccc5c4)c3)CC2)=C(c2ccc(Cl)cc2)C1 + NC1CC1c1ccc(-c2cccc(O)c2)cc1

>  <viability, T/C>
16.8%

$$$$
>  <compound>
CC(C)c1c(-c2ccccc2)nc2c(C#N)c[nH]n2c1=O + NC1CC1c1ccc(-c2cccc(O)c2)cc1

>  <viability, T/C>
76.8%

$$$$

----------
# Tested on: 653999-131-R-J2-PDC complex spheroid viability
# protocol notes: Anticancer human tumor 653999-131-R-J2-PDC cell line growth inhibition;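 further: spheroids exposed to agents for seven days before readout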
# details: second compound 0.1 µM; first compound 3.16 µM; hits give low values
measured attribute: viability, T/C (%)

>  <molecule>
CC1COCCN1c1cc(C2(S(C)(=N)=O)CC2)nc(-c2ccnc3[nH]ccc23)n1 (configuration not stated) + NC1CC1c1ccc(-c2cccc(O)c2)cc1

>  <assay target>
653999-131-R-J2-PDC complex spheroid viability

>  <meas value>
47.9

$$$$
>  <molecule>
CC(C)c1c(-c2ccccc2)nc2c(C#N)c[nH]n2c1=O + NC1CC1c1ccc(-c2cccc(O)c2)cc1

>  <assay target>
653999-131-R-J2-PDC complex spheroid viability

>  <meas value>
80.1

$$$$
>  <molecule>
O=C(c1cc(Cc2n[nH]c(=O)c3ccccc23)ccc1F)N1CCN(C(=O)C2CC2)CC1 + NC1CC1c1ccc(-c2cccc(O)c2)cc1

>  <assay target>
653999-131-R-J2-PDC complex spheroid viability

>  <meas value>
76.5

$$$$
>  <molecule>
COc1ccc([C@@H](O)c2cc(-c3ncnc4cc(N5CCOCC5)ccc34)c(F)cc2Cl)nn1 + NC1CC1c1ccc(-c2cccc(O)c2)cc1

>  <assay target>
653999-131-R-J2-PDC complex spheroid viability

>  <meas value>
54.1

$$$$
>  <molecule>
CC1COCCN1c1cc(C2(S(C)(=N)=O)CC2)nc(-c2ccnc3[nH]ccc23)n1 (configuration not stated) + NC1CCC(NC2CC2c2ccccc2)CC1

>  <assay target>
653999-131-R-J2-PDC complex spheroid viability

>  <meas value>
32.8

$$$$
>  <molecule>
CC(C)c1c(-c2ccccc2)nc2c(C#N)c[nH]n2c1=O + NC1CCC(NC2CC2c2ccccc2)CC1

>  <assay target>
653999-131-R-J2-PDC complex spheroid viability

>  <meas value>
91.8

$$$$
>  <molecule>
CC1(C)CCC(CN2CCN(c3ccc(C(=O)NS(=O)(=O)c4ccc(NCC5CCOCC5)c([N+](=O)[O-])c4)c(Oc4cnc5[nH]ccc5c4)c3)CC2)=C(c2ccc(Cl)cc2)C1 + NC1CCC(NC2CC2c2ccccc2)CC1

>  <assay target>
653999-131-R-J2-PDC complex spheroid viability

>  <meas value>
94.8

$$$$
